Target: GLP-1R (Homo sapiens (Human), UniProt P43220)
Sequence (P43220 24-463): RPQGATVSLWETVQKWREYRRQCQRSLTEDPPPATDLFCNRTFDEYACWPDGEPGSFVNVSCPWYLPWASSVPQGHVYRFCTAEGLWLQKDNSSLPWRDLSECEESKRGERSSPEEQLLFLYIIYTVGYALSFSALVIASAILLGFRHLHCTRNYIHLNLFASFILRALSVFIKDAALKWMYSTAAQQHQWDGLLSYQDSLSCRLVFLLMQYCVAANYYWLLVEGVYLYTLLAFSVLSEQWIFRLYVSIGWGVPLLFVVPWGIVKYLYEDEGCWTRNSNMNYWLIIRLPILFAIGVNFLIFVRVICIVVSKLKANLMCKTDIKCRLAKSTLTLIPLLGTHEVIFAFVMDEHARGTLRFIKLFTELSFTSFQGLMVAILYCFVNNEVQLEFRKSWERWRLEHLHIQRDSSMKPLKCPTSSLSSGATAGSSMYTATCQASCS
Test: GLP-1R activation: cAMP increase in CHO cells stably expressing GLP-1R
Assay type: cell-based
Conditions: cAMP increase, 10 point dose response, 30 minutes incubation at 37° C., read-out: EC50
Measured metric: pEC50
Give bare numbers, as −log10 of the molar value.

>  <Compound>
CC1(c2ccc(Cl)cc2F)Oc2cccc(-c3cc(F)c(Cc4nc5ccc(C(=O)O)cc5n4C[C@@H]4CCO4)c(F)c3F)c2O1 (stereo partly drawn)

>  <Test target>
GLP-1R (Homo sapiens (Human), UniProt P43220)

>  <pEC50>
10.05

$$$$
>  <Compound>
CC1(c2ccc(Cl)cn2)Oc2cccc(-c3cc(F)c(Cc4nc5ccc(C(=O)O)cc5n4CC4(CC#N)CC4)c(F)c3)c2O1 (stereo not drawn)

>  <Test target>
GLP-1R (Homo sapiens (Human), UniProt P43220)

>  <pEC50>
8.77

$$$$

I'd like to know its pEC50. The compound in question is COCCn1c(Cc2c(F)cc(-c3cccc4c3OC(C)(c3ccc(C#N)cc3F)O4)cc2F)nc2ccc(C(=O)O)cc21 (single isomer, unassigned) [Example 99] 8.62

----------
For each entry below, report its Predicted Hepatic Clearance (Pred. Cl.) value.
Experiment: Microsomal stability (liver microsomal assay, mixed cofactors); predicted hepatic clearance
Format: in vitro ADME
Conditions: liver microsomes 1.0 mg protein/mL (+UDPGA +NADPH), 1 μM analyte, 37° C.; scaled with human liver weight and hepatic blood flow 1.3 L/hr/kg
Give bare numbers, in mL/min/kg.

>  <Molecule>
COCCn1c(Cc2c(F)cc(-c3cccc4c3OC(C)(c3ccc(C(F)(F)F)cc3F)O4)cc2F)nc2ccc(C(=O)O)cc21 (stereo not shown)

>  <Predicted Hepatic Clearance (Pred. Cl.) [mL/min/kg]>
3.17

$$$$

Give measured Predicted Hepatic Clearance (Pred. Cl.) for every item shown.
1. CC1(c2ccc(Cl)cc2F)Oc2cccc(-c3cc(F)c(Cc4nc5ccc(C(=O)O)cc5n4C[C@@H]4CCO4)c(C#N)c3)c2O1 (stereo partly shown)
2. COCCn1c(Cc2c(F)cc(-c3cccc4c3OC(C)(c3ccc(Cl)cc3OC)O4)cc2F)nc2ccc(C(=O)O)cc21 (stereo not shown)
3. COCCn1c(Cc2c(F)cc(-c3cccc4c3OC(C)(c3ccc(Cl)cc3F)O4)cc2F)nc2ccc(C(=O)O)cc21 (stereo not shown)
4. CC1(c2ccc(C#N)cc2F)Oc2cccc(-c3cc(F)c(Cc4nc5ccc(C(=O)O)cc5n4C[C@@H]4CCO4)c(F)c3)c2O1 (single isomer, unassigned) [Example 92]

1. 8
2. 3.5
3. 2.5
4. 2.67

Give Predicted Hepatic Clearance (Pred. Cl.) for each of the items listed below.
1. CC1(c2ccc(Cl)cn2)Oc2cccc(-c3cc(F)c(Cc4nc5ccc(C(=O)O)cc5n4C[C@@H]4CCO4)c(F)c3F)c2O1 (stereo partly shown)
2. COCCn1c(Cc2ccc(-c3cccc4c3OC(c3ccc(C#N)cc3F)O4)cc2F)nc2ccc(C(=O)O)cc21 (stereo not shown) [Example 4]
3. COCCn1c(Cc2c(F)cc(-c3cccc4c3OC(C)(c3ccc(C#N)cc3F)O4)cc2F)nc2ccc(C(=O)O)cc21 (single isomer, unassigned) [Example 98]

3.5
4.17
3.5

Batch of 7 molecules: report Predicted Hepatic Clearance (Pred. Cl.) for each.
1. CC1(c2ccc(C#N)cc2F)Oc2cccc(-c3cc(F)c(Cc4nc5ccc(C(=O)O)cc5n4C[C@@H]4CCO4)c(F)c3F)c2O1 (stereo partly shown) [Example 90]
2. COCCn1c(Cc2c(F)cc(-c3cccc4c3O[C@@](C)(c3ccc(Cl)cc3F)O4)cc2F)nc2ccc(C(=O)O)cc21
3. CC1(c2ccc(Cl)cc2F)Oc2cccc(-c3cc(F)c(Cc4nc5ccc(C(=O)O)cc5n4C[C@@H]4CCO4)cc3F)c2O1 (single isomer, unassigned) [Example 44]
4. COCCn1c(Cc2c(F)cc(-c3cccc4c3OC(C)(c3ccc(Cl)cn3)O4)cc2F)nc2ccc(C(=O)O)cc21 (stereo not shown) [Example 64]
5. CC1(c2ccc(Cl)cn2)Oc2cccc(-c3cc(F)c(Cc4nc5ccc(C(=O)O)cc5n4C[C@@H]4CCO4)c(F)c3)c2O1 (single isomer, unassigned) [Example 49]
6. COCCn1c(Cc2c(F)cc(-c3cccc4c3OC(C)(c3ccc(C#N)s3)O4)cc2F)nc2ccc(C(=O)O)cc21 (stereo not shown)
7. COCCn1c(Cc2cc(F)c(-c3cccc4c3OC(c3ccc(C#N)cc3F)O4)cc2F)nc2ccc(C(=O)O)cc21 (single isomer, unassigned) [Example 40]

4.67
3.17
4.83
3.67
3.33
7.17
5

Give me Predicted Hepatic Clearance (Pred. Cl.) for each of these molecules, listed below.
1. CC1(c2ccc(Cl)cc2F)Oc2cccc(-c3ccc(Cc4nc5ccc(C(=O)O)cc5n4CC4(n5ccnn5)CC4)c(F)c3)c2O1 (stereo not shown) [Example 109]
2. CCn1cnnc1Cn1c(Cc2c(F)cc(-c3cccc4c3OC(C)(c3ccc(Cl)cc3F)O4)cc2F)nc2ccc(C(=O)O)cc21 (stereo not shown)
3. COCCn1c(Cc2cc(F)c(-c3cccc4c3OC(C)(c3ccc(Cl)cc3F)O4)cc2F)nc2ccc(C(=O)O)cc21 (stereo not shown)
4. COCCn1c(Cc2c(F)cc(-c3cccc4c3OC(C)(c3ccc(C#N)cc3F)O4)c(F)c2F)nc2ccc(C(=O)O)cc21 (stereo not shown) [Example 88]
5. COCCn1c(Cc2ccc(-c3cccc4c3OC(C)(c3ccc(Cl)cc3F)O4)cc2F)nc2ccc(C(=O)O)cc21 (stereo not shown)
6. COCCn1c(Cc2csc(-c3cccc4c3OC(C)(c3ccc(Cl)cc3F)O4)c2)nc2ccc(C(=O)O)cc21 (stereo not shown)

[2.5, 2.83, 5.83, 8, 4, 13]

// each molecule listed below needs its Predicted Hepatic Clearance (Pred. Cl.)
1. COCCn1c(Cc2ccc(-c3cccc4c3OC(c3ccc(Cl)cc3F)C4)cc2F)nc2ccc(C(=O)O)cc21 (stereo not shown)
2. CC1(c2ccc(Cl)cn2)Oc2cccc(-c3cc(F)c(Cc4nc5ccc(C(=O)O)cc5n4CC4(CC#N)CC4)c(F)c3)c2O1 (stereo not shown)

1. 2.33
2. 2.67
